Biological target: Upc2 (UniProt Q12151)
Sequence: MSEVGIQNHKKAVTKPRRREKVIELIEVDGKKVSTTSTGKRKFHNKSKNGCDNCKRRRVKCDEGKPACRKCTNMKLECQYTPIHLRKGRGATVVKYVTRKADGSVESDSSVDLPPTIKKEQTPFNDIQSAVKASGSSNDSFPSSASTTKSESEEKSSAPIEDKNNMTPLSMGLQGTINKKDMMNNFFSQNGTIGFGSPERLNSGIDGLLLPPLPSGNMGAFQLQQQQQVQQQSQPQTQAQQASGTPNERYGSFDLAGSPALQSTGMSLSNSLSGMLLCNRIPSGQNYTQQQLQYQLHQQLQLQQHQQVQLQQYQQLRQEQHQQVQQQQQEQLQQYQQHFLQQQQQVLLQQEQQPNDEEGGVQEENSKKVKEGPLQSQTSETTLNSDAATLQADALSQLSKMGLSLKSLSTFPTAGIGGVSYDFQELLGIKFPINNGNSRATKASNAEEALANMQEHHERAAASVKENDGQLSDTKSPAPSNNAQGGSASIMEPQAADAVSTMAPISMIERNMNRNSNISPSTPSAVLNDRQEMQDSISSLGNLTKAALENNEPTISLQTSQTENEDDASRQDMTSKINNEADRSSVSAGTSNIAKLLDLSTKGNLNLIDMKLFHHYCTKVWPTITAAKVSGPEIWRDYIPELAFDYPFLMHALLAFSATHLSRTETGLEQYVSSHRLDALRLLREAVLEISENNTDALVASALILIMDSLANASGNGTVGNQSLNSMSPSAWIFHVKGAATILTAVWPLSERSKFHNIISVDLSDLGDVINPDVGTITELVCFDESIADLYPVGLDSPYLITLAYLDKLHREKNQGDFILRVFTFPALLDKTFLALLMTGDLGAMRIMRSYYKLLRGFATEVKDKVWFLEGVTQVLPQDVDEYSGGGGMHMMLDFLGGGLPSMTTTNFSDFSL
Assay: PBM E-score (8-mer binding enrichment) (E-score (-0.5 to 0.5)); higher = stronger / more preferred TF binding
Details: protein concentration: 200 nM; construct: GST-full length
In all, about 33,000 sequences were measured (“E-score (-0.5 to 0.5)”: median about -0.043, highest 2% from about 0.37 on). The full list was thinned out, with the highest values kept by preference.
Measured Metric: PBM E-score
Could you respond with only the numeric value?

Dear colleague, I am looking for the recorded PBM E-score of the following sequence: TACGAGTA
0.453

Dear colleague, I am looking for the recorded PBM E-score of the following sequence: AACCTGCT
-0.0408

Dear colleague, I am looking for the recorded PBM E-score of the following sequence: CGCCTTAG
-0.169

====

PBM E-score overview
Target: Upc2 (UniProt Q12151)
Sequence: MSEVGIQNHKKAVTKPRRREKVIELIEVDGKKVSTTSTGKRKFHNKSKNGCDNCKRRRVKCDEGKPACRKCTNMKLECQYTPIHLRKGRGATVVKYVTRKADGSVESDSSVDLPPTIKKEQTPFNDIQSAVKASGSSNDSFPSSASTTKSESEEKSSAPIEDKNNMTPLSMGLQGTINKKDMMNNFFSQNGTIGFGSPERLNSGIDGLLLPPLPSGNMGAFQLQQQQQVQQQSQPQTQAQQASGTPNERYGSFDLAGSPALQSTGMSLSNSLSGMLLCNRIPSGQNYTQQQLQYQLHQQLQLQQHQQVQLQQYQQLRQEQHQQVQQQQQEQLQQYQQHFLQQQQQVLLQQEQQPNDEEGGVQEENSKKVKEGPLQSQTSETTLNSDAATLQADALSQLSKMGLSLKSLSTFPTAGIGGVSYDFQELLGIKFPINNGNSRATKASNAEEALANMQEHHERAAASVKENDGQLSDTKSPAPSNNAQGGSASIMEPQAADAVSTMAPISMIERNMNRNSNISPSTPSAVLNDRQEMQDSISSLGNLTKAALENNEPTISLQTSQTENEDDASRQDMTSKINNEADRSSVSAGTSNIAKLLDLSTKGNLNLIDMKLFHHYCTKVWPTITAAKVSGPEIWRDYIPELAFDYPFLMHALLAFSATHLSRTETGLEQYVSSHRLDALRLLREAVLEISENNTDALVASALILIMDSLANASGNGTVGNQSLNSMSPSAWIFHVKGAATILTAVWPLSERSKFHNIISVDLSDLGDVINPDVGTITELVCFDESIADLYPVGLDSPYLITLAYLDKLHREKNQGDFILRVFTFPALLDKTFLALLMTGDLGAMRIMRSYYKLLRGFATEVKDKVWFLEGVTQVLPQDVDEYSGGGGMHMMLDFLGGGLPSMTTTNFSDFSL
Test: PBM E-score (8-mer binding enrichment) (E-score (-0.5 to 0.5)); higher = stronger / more preferred TF binding
Details: protein concentration: 200 nM; construct: GST-full length
Whole data set: some 33,000 sequences, median “E-score (-0.5 to 0.5)” near -0.043, cut for the highest 2% near 0.37. What follows is part of a selection rich in the highest values, with near analogues and random picks from the rest.

Use the examples below as a reference point.
seq_text=ATAGGCGG result=-0.0532
seq_text=CCATCGTA result=0.44

Dear colleague, I am looking for the recorded PBM E-score of the following sequence: AGCTTGAT
-0.129

Dear colleague, I am looking for the recorded PBM E-score of the following sequence: GACGTAGC
0.0263

Dear colleague, I am looking for the recorded PBM E-score of the following sequence: AACGACGG
0.437

Dear colleague, I am looking for the recorded PBM E-score of the following sequence: AAGATCGC
0.148

Dear colleague, I am looking for the recorded PBM E-score of the following sequence: AAGCCAGA
-0.2

Dear colleague, I am looking for the recorded PBM E-score of the following sequence: AGTTCAGC
-0.205

Dear colleague, I am looking for the recorded PBM E-score of the following sequence: ACCGTTTG
0.333

Dear colleague, I am looking for the recorded PBM E-score of the following sequence: AACTATCA
0.134

Dear colleague, I am looking for the recorded PBM E-score of the following sequence: CGTTCAGC
0.396

====

PBM E-score overview
Target: Upc2 (UniProt Q12151)
Sequence: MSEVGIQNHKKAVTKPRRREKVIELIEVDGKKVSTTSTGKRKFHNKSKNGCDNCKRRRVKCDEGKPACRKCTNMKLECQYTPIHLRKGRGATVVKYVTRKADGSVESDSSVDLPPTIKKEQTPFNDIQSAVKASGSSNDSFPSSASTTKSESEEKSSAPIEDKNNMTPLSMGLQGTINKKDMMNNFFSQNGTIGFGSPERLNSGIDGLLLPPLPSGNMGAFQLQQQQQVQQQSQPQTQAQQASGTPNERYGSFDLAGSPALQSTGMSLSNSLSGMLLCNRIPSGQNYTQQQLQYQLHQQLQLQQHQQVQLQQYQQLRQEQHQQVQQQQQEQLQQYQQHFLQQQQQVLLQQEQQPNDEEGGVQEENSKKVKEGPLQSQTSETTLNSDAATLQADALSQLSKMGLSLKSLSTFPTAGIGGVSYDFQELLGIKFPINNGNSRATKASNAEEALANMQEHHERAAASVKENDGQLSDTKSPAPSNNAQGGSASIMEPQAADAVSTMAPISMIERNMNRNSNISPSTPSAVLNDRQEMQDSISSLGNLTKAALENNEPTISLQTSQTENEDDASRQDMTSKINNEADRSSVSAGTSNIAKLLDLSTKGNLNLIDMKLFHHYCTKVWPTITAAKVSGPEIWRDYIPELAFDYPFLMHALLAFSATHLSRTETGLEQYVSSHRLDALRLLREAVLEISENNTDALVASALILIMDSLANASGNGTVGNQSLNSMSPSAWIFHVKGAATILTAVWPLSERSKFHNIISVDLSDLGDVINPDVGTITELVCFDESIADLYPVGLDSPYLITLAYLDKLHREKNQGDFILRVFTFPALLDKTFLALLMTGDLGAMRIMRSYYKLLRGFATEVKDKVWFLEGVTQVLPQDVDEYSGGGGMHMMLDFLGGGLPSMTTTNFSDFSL
Test: PBM E-score (8-mer binding enrichment) (E-score (-0.5 to 0.5)); higher = stronger / more preferred TF binding
Conditions: protein concentration: 200 nM; construct: GST-full length
Over roughly 33,000 sequences, “E-score (-0.5 to 0.5)” has its median near -0.043; the highest 2% begin near 0.37. Many of the other results were omitted from the sample, so the highest values are more common in it than they were.
Could you respond with only the numeric value?

Use the examples below as a reference point.
seq_text=TAAGACAA numeric_result=0.0602
seq_text=AACAAACG numeric_result=0.353
seq_text=GACCCACA numeric_result=0.0499
seq_text=CGTCGATC numeric_result=-0.0198
seq_text=CGGTTACA numeric_result=0.156

Find the measured PBM E-score: item CGCTGCAC , target or system Upc2 (UniProt Q12151).
-0.0173

Find the measured PBM E-score: item CGCAAACG , target or system Upc2 (UniProt Q12151).
0.412

Find the measured PBM E-score: item CCGAACGA , target or system Upc2 (UniProt Q12151).
0.384

Find the measured PBM E-score: item ACGATTTG , target or system Upc2 (UniProt Q12151).
0.28

Find the measured PBM E-score: item ACCAAACC , target or system Upc2 (UniProt Q12151).
-0.0475

Find the measured PBM E-score: item CGCAAACA , target or system Upc2 (UniProt Q12151).
0.0866
